assay.name: Tissue distribution of SHR9146 in mice after oral gavage of 40 mg/kg
Assay type: in vivo, ICR mice
condition.parameters: male, ICR, mouse, stomach, po, 40 mg/kg, male, 1 h, 40 mg/kg oral gavage, Mean (n=3); read-out: SHR9146 concentration in Stomach
measured.property: concentration at 1 h

Asked: Query: concentration at 1 h; subject: "OCCn1cc(-c2ccc(N3CCC([C@H]4c5c(F)cccc5-c5cncn54)CC3)cc2)cn1"
Given back: 38000 ng/g

====

assay.name: Tissue distribution of SHR9146 in mice after oral gavage of 40 mg/kg
Type: in vivo, ICR mice
condition.parameters: male, ICR, mouse, kidney, po, 40 mg/kg, male, 3 h, 40 mg/kg oral gavage, Mean (n=3); read-out: SHR9146 concentration in Kidney
measured.property: concentration at 3 h (ng/g)
// return numeric value only (unit: ng/g, not printed)

Asked: Query: concentration at 3 h; subject: OCCn1cc(-c2ccc(N3CCC([C@H]4c5c(F)cccc5-c5cncn54)CC3)cc2)cn1 [SHR9146]
Given back: 4780

====

assay.name: Tissue distribution of SHR9146 in mice after oral gavage of 40 mg/kg
Assay type: in vivo, ICR mice
condition.parameters: male, ICR, mouse, heart, po, 40 mg/kg, male, 6 h, 40 mg/kg oral gavage, Mean (n=3); read-out: SHR9146 concentration in Heart
measured.property: concentration at 6 h (ng/g)
// return numeric value only (unit: ng/g, not printed)

Asked: Query: concentration at 6 h; subject: "OCCn1cc(-c2ccc(N3CCC([C@H]4c5c(F)cccc5-c5cncn54)CC3)cc2)cn1"
Given back: 48

====

assay.name: Tissue distribution of SHR9146 in mice after oral gavage of 40 mg/kg
Assay type: in vivo, ICR mice
condition.parameters: male, ICR, mouse, abdominal fat, po, 40 mg/kg, male, 6 h, 40 mg/kg oral gavage, Mean (n=3); read-out: SHR9146 concentration in Abdominal fat
measured.property: concentration at 6 h
Reply with the number and its unit after it.

Asked: Query: concentration at 6 h; subject: "OCCn1cc(-c2ccc(N3CCC([C@H]4c5c(F)cccc5-c5cncn54)CC3)cc2)cn1"
Given back: 75 ng/g

====

assay.name: Tissue distribution of SHR9146 in mice after oral gavage of 40 mg/kg
Assay type: in vivo, ICR mice
condition.parameters: female, ICR, mouse, stomach, po, 40 mg/kg, female, 24 h, 40 mg/kg oral gavage, individual mice; read-out: SHR9146 concentration in Stomach
measured.property: concentration at 24 h (ng/g)
// return numeric value only (unit: ng/g, not printed)

Asked: Query: concentration at 24 h; subject: "OCCn1cc(-c2ccc(N3CCC([C@H]4c5c(F)cccc5-c5cncn54)CC3)cc2)cn1"
Given back: 782

====

assay.name: Tissue distribution of SHR9146 in mice after oral gavage of 40 mg/kg
Assay type: in vivo, ICR mice
condition.parameters: male, ICR, mouse, abdominal fat, po, 40 mg/kg, male, 1 h, 40 mg/kg oral gavage, Mean (n=3); read-out: SHR9146 concentration in Abdominal fat
measured.property: concentration at 1 h (ng/g)
// return numeric value only (unit: ng/g, not printed)

Asked: Query: concentration at 1 h; subject: OCCn1cc(-c2ccc(N3CCC([C@H]4c5c(F)cccc5-c5cncn54)CC3)cc2)cn1 [SHR9146]
Given back: 7200
